# test-details: non-covalent RecA intein splicing inhibitors, dose response, biochemical, cell-free, fluorescence, secondary screen (AID 449750)
Calls of active or inactive are those of the source. No rule for the calls is given here.
# output must be one of yes (1) (active), no (0) (inactive)

Previously resolved entries follow.
{"molecule": "Fc1ccc(Nc2nc(Oc3ccccc3F)nc(N3CCCC3)n2)cc1", "class": "no (0)"}
{"molecule": "CC(=O)C12CC(C)=C(C)CC1CC1C3CCC4=CC(=O)CCC4(C)C3CCC12C (stereo not drawn)", "class": "yes (1)"}
{"molecule": "CN(CCC#N)C(=O)Cn1nc(Cc2ccncc2)c2ccccc2c1=O", "class": "no (0)"}
{"molecule": "O=C(Cc1ccccc1Cl)NC1(O)C(=O)c2ccccc2C1=O", "class": "yes (1)"}
{"molecule": "COc1cc(C(=O)c2nccc3cc(OC)c(OC)cc23)c([N+](=O)[O-])cc1OC", "class": "yes (1)"}

[ask] Call for entry `CCC(=O)Nc1c(C)nn(C(=O)CC)c1C` :
[reply] no (0)

[ask] Per the assay record, what outcome was assigned to N#CC(C#N)C(c1ccsc1)c1c(-c2ccccc2)[nH][nH]c1=O (stereo not drawn) ?
[reply] yes (1)

[ask] // outcome(item) with item = `COC(=O)C[C@]1(C(=O)OC)CN(C#N)N(c2ccc(Cl)cc2)C12c1ccccc1-c1ccccc12`
[reply] yes (1)

[ask] Hi team, can someone confirm the assay call for `COc1ccccc1Nc1cc2cc(Br)ccc2c(=O)[nH]1` ?
[reply] yes (1)

[ask] Short answer needed: outcome of this test for `CCOc1cc(C(c2c(C)[nH][nH]c2=O)c2c(C)[nH][nH]c2=O)cc(Cl)c1O` ?
[reply] no (0)

[ask] Answer briefly: the call reported for `CCCc1nnc(NC(=O)c2nc(S(=O)(=O)Cc3ccc(C)cc3)ncc2Cl)s1` in this assay.
[reply] yes (1)

[ask] Just curious, what result did `O=C(NN=c1c(=O)c2ccccc2c1=O)c1ccccc1` get here?
[reply] yes (1)

[ask] For `COc1cc(/C=N/NC(=O)CC2(C)OCCCO2)ccc1OCc1ccccc1` , which call appears in the assay record?
[reply] no (0)
